Overview of reported pKd across a group of binders:
Target: T1, human IL-23 (Sino Biological, CT048-H08H) (human, UniProt Q9NPF7 20-189; P29460 23-328)
T1 construct: also called human IL-23 protein; Human IL-23 p19
T1 sequence (looked up) 1: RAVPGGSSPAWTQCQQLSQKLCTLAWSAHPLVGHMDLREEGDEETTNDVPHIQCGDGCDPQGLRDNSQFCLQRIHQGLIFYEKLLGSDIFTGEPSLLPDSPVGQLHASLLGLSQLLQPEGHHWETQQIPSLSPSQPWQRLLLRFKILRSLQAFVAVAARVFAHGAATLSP
T1 sequence (looked up) 2: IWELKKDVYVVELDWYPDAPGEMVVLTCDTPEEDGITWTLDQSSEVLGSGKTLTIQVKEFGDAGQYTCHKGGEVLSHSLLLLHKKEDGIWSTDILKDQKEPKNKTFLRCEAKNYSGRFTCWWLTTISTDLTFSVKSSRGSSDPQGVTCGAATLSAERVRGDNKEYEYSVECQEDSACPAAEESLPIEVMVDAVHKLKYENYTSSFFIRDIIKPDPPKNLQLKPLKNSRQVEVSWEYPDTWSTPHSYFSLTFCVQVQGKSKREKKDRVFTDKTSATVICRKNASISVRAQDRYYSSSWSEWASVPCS
Assay: SPR (Biacore), Protein A capture of sample, 1:1 model
# log scale: pKd equals minus log10 of the concentration in mol/L

Examples with their reported pKd follow.
binder	pKd
Hu38-5 (antibody, human IgG1, kappa, L234A L235A, V domains shown, humanized mAb38, IgG1/kappa) VH: EVQLVQSGAEVKKPGASVKVSCKASGYSFTDHNMNWVRQAPGQRLEWMGVINPNYGTTTYNQKFKGRVTITVDTSASTAYMELSSLRSEDTAVYYCARRGFAYWGQGTLVTVSS VL: DIVMTQTPLSLPVTPGEPASISCRSSKSLLYKDGKTYLNWYLQKPGQSPQLLIYLMSTRASGVPDRFSGSGSGTDFTLKISRVEAEDVGVYYCQQIAEYPFTFGSGTKLEIKR	9.56
Hu29-19 (antibody, human IgG1, kappa, L234A L235A, V domains shown, humanized mAb29, IgG1/kappa) VH: QVTLKESGPVLVKPTETLTLTCTVSGFSLTNYAISWVRQPPGKGLEWLGVIWTGGGTNYNSGIKSRLTISKDNSKSQVVLTMTNMDPVDTARYYCVREGDYGSYAGAMDYWGQGTTVTVSS VL: DIVLTQSPDSLAVSLGERATINCRASESVDYYGISSMHWFQQKPGQPPKLLIYRASNLESGIPARFSGSGSRTDFTLTISSLQAEDVAVYYCQQANKDPYTFGGGTKVEIKR	10.82

## Input Need pKd, item Hu38-16 (antibody, human IgG1, kappa, L234A L235A, V domains shown, humanized mAb38, IgG1/kappa) VH: EFQLVQSGAEVKKPGASVKVSCKASGYSFTDHNMNWVRQAPGQSLEWMGVINPNYGTTTYNQKFKGRVTITVDQSASTAYMELSSLRSEDTAVYYCARRGFAYWGQGTLVTVSS VL: DIVMTQTPLSLPVTPGEPASISCRSSKSLLYKDGKTYLNWFLQKPGQSPQLLIYLMQTRASGVPDRFSGSGSGTDLTLKISRVEAEDVGVYYCQQIAEYPFTFGSGTKLEIKR
## Output 9.79

Origin of the recorded values: patent US20240400670A1
